Origin of measurements: patent US6476263B1

Residues, ends and D or L forms follow the SMILES beside them. *: point of attachment. PhAc = O=C(Cc1ccccc1)*; Boc = CC(C)(C)OC(=O)*
Recorded melting point for the following compounds

The examples below pair each entry with its known result.
INSERT INTO measurements (compound, readout_label, result) VALUES
  ('COC(=O)C(NC(=O)[C@H](C)NC(=O)Cc1cc(F)cc(F)c1)c1cccs1 (some centres unmarked)', 'melting point', '161 to 162 °C'),
  ('COC(=O)C(NC(=O)[C@H](C)NC(=O)Cc1cc(F)cc(F)c1)c1ccc(OC)cc1 (some centres unmarked)', 'melting point', '170 to 174 °C'),
  ('COC(=O)[C@H](CCCCNC(=O)OC(C)(C)C)NC(=O)[C@H](C)NC(=O)Cc1ccccc1 [Example 205] (PhAc-Ala-Lys(Boc)-OMe)', 'melting point', '119 to 121 °C'),
  ('COC(=O)[C@@H](NC(=O)[C@H](Cc1ccccc1)NC(=O)Cc1cc(F)cc(F)c1)c1ccccc1', 'melting point', '188.3 °C'),
  ('C[C@H](NC(=O)Cc1cc(F)cc(F)c1)C(=O)NCC(=O)OCc1ccccc1', 'melting point', '167.5 °C'),
  ('CC(C)COC(=O)[C@H](C)NC(=O)[C@H](Cc1ccccc1)NC(=O)CC(C)C', 'melting point', '135 to 138 °C'),
  ('COC(=O)[C@@H](NC(=O)[C@@H](NC(=O)Cc1cc(F)cc(F)c1)c1ccsc1)c1ccccc1', 'melting point', '229.3 °C');

Summary for this compound, COCC(NC(=O)[C@H](C)NC(=O)Cc1cc(F)cc(F)c1)C(=O)OC (some centres unmarked) : melting point is 165 to 168 °C

---

readout label: melting point

The examples below pair each entry with its known result.
INSERT INTO measurements (compound, readout_label, result) VALUES
  ('COC(=O)[C@H](NC(=O)[C@H](C)NC(=O)Cc1cc(F)cc(F)c1)c1cccs1 [Example 178]', 'melting point', '180 to 181 °C'),
  ('COC(=O)[C@@H](NC(=O)[C@@H](NC(=O)Cc1cc(F)cc(F)c1)C1CC1)c1ccccc1 [Example 257]', 'melting point', '225 to 226.5 °C'),
  ('CC[C@H](NC(=O)Cc1cc(F)cc(F)c1)C(=O)N[C@H](C(=O)OC(C)(C)C)c1ccccc1 [Example 191]', 'melting point', '138.7 to 140 °C'),
  ('COC(=O)[C@H](Cc1ccccc1)NC(=O)[C@H](C)NC(=O)Cc1ccccn1 [Example 132]', 'melting point', '137 to 139 °C'),
  ('O=C(Cc1cc(F)cc(F)c1)N[C@H](C(=O)N[C@H](CO)c1ccccc1)c1ccccc1 [Example 245]', 'melting point', '231.4 °C'),
  ('COC(=O)[C@H](Cc1ccccc1)NC(=O)[C@H](C)NC(=O)Cc1cccnc1 [Example 131]', 'melting point', '150 to 152 °C'),
  ('CCOC(=O)CNC(=O)[C@H](C)NC(=O)Cc1cccc([N+](=O)[O-])c1 [Example 77]', 'melting point', '164 to 165 °C');

Summary for this compound, CCOC(=O)C(NC(=O)[C@H](C)NC(=O)Cc1cc(F)cc(F)c1)c1ccccc1F (some centres unmarked) [Example 135] : melting point is 153 to 170 °C
